Recorded values, source paper PMC7529893.

Target: MAGE-A11:PCF11 interaction (GST-MAGE-A11 and FAM-PCF11_4) (Homo sapiens)
Construct: GST-MAGE-A11 MHD (human MAGE-A11 MHD amino acid 218-429); made in house; host or cells: E. coli BL21(DE3)
Sequence (P43364 218-429): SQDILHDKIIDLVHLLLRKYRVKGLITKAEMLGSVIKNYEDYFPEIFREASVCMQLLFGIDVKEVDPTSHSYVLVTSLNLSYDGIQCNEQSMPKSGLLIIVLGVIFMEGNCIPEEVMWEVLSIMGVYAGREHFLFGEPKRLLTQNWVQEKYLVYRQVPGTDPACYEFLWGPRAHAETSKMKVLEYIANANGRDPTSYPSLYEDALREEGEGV
Assay: TR-FRET primary / single point screen at 15 µM
Type: binding
Details: single point TR-FRET screening of quinoline compounds against MAGE-A11:PCF11; 15 µM
MEASURED PROPERTY: percent inhibition (TR-FRET)
Hey, just send me the number, nothing else.

[Q] Item CCCN(CCCNc1ccnc2cc(C(F)(F)F)ccc12)CCOCc1ccccc1 has what recorded percent inhibition (TR-FRET)?
[A] 25.8235

[Q] Item CCCN(CCCNc1ccnc2cc(C(F)(F)F)ccc12)Cc1scnc1C has what recorded percent inhibition (TR-FRET)?
[A] 5.164

[Q] Item CCCN(CCCNc1ccnc2cc(Cl)ccc12)CCC(C)(C)C has what recorded percent inhibition (TR-FRET)?
[A] 12.1149

[Q] Item Cc1ccc(F)cc1CN(CCCNc1ccnc2cc(Cl)ccc12)Cc1ccccc1 has what recorded percent inhibition (TR-FRET)?
[A] 29.7727

[Q] Item CCCN(CCCNc1ccnc2cc(C(F)(F)F)ccc12)Cc1cnn(C)c1 has what recorded percent inhibition (TR-FRET)?
[A] 15.6779

[Q] Item c1coc(CNCCCNc2ccnc3cc(-c4cccc5ccccc45)ccc23)c1 has what recorded percent inhibition (TR-FRET)?
[A] 41.5719

[Q] Item COC(=O)CCCCCNCCCNc1ccnc2cc(C(F)(F)F)ccc12 has what recorded percent inhibition (TR-FRET)?
[A] 19.5869

[Q] Item CCCN(CCCNc1ccnc2cc(Cl)ccc12)Cc1ccc(-c2ccccc2)cc1 has what recorded percent inhibition (TR-FRET)?
[A] 30.2293

[Q] Item CCCN(CCCNc1ccnc2cc(C(F)(F)F)ccc12)CC(CC)CC has what recorded percent inhibition (TR-FRET)?
[A] 30.6641

[Q] Item CCCN(CCCNc1ccnc2cc(Cl)ccc12)Cc1cc2ccccc2s1 has what recorded percent inhibition (TR-FRET)?
[A] 5.864

[Q] Item CCCN(CCCNc1ccnc2cc(C(F)(F)F)ccc12)Cc1cccc2c1OCO2 has what recorded percent inhibition (TR-FRET)?
[A] 14.6158

[Q] Item COc1ccc2nc3cc(Cl)ccc3c(NCCCNCc3c4ccccc4cc4ccccc34)c2c1 has what recorded percent inhibition (TR-FRET)?
[A] -3.728

[Q] Item COc1ccc2nc3cc(Cl)ccc3c(NCCCNCc3ccc(Cl)c([N+](=O)[O-])c3)c2c1 has what recorded percent inhibition (TR-FRET)?
[A] -95.379

[Q] Item CCCN(CCCNc1ccnc2cc(Cl)ccc12)Cc1cccc(C(F)(F)F)c1 has what recorded percent inhibition (TR-FRET)?
[A] 17.481

[Q] Item COc1ccc(-c2ccc3c(NCCCNCc4ccco4)ccnc3c2)cc1 has what recorded percent inhibition (TR-FRET)?
[A] 7.824

[Q] Item CCCN(CCCNc1ccnc2cc(C(F)(F)F)ccc12)Cc1c[nH]c2ccccc12 has what recorded percent inhibition (TR-FRET)?
[A] 16.1561

[Q] Item CCCN(CCCNc1ccnc2cc(Cl)ccc12)Cc1cc(F)cc(F)c1O has what recorded percent inhibition (TR-FRET)?
[A] 15.9573

[Q] Item Cc1ccsc1CNCCCNc1ccnc2cc(Cl)ccc12 has what recorded percent inhibition (TR-FRET)?
[A] 6.554

[Q] Item CCCN(CCCNc1ccnc2cc(C(F)(F)F)ccc12)Cc1ccccc1O has what recorded percent inhibition (TR-FRET)?
[A] 26.5044

[Q] Item CCCN(CCCNc1ccnc2cc(Cl)ccc12)Cc1ccc(OC)cc1 has what recorded percent inhibition (TR-FRET)?
[A] 19.1371

[Q] Item CCC(CC)CNCCCNc1ccnc2cc(Cl)ccc12 has what recorded percent inhibition (TR-FRET)?
[A] 16.5535

[Q] Item Cn1cc(CNCCCNc2ccnc3cc(Cl)ccc23)c2ccccc21 has what recorded percent inhibition (TR-FRET)?
[A] 18.4667

[Q] Item CCCN(CCCNc1ccnc2cc(Cl)ccc12)Cc1ccc(C(=O)OC)cc1 has what recorded percent inhibition (TR-FRET)?
[A] 16.7163

[Q] Item CCCN(CCCNc1ccnc2cc(Cl)ccc12)Cc1c(C)n(C)n(-c2ccccc2)c1=O has what recorded percent inhibition (TR-FRET)?
[A] 13.6386

[Q] Item CCCN(CCCNc1ccnc2cc(Cl)ccc12)Cc1ccc(C)s1 has what recorded percent inhibition (TR-FRET)?
[A] 16.5062

[Q] Item CCCN(CCCNc1ccnc2cc(Cl)ccc12)Cc1nccn1C has what recorded percent inhibition (TR-FRET)?
[A] 6.351

[Q] Item Clc1ccc2c(NCCCNCc3ccccn3)ccnc2c1 has what recorded percent inhibition (TR-FRET)?
[A] 4.744

[Q] Item CCCN(CCCNc1c2ccc(Cl)cc2nc2ccc(OC)cc12)Cc1csc2ccccc12 has what recorded percent inhibition (TR-FRET)?
[A] -51.6891
